Test system: Escherichia coli K-12 BW25113
Test: relative growth (OD600 normalised to plate interquartile mean) (fraction); higher = less growth inhibition, active = 0.2 or less
Details: 50 µM; LB; incubation time: overnight (16-24 h)
Screen size: about 39,000 compounds; about 220 (0.56%) showed activity. The list comes from a sample in which actives are over-represented; it also holds close analogues and randomly drawn compounds.
Some molecules, each annotated with its measured relative growth.
Just the number, please, no unit attached.

Please review the following examples before continuing.
[[record]]
molecule = "C[C@H](CO)N1C[C@H](C)[C@@H](CN(C)Cc2ccc3c(c2)OCO3)Oc2c(NC(=O)c3cnccn3)cccc2C1=O"
assayed_system = "Escherichia coli K-12 BW25113"
recorded_measurement = 0.969

[[record]]
molecule = "CCC(=O)Nc1cnc(OC)nc1OC"
assayed_system = "Escherichia coli K-12 BW25113"
recorded_measurement = 1.01

[[record]]
molecule = "COC[C@H](C)N1C[C@H](C)[C@@H](CN(C)Cc2ccc(Oc3ccccc3)cc2)Oc2c(NC(=O)c3ccncc3)cccc2C1=O"
assayed_system = "Escherichia coli K-12 BW25113"
recorded_measurement = 1

[[record]]
molecule = "CCC(C)CCCCC(=O)NC(CCN)C(=O)NC(C(=O)NC(CCN)C(=O)NC1CCNC(=O)C(C(C)O)NC(=O)C(CCN)NC(=O)C(CCN)NC(=O)C(CC(C)C)NC(=O)C(Cc2ccccc2)NC(=O)C(CCN)NC1=O)C(C)O.O=S(=O)(O)O (centres undefined)"
assayed_system = "Escherichia coli K-12 BW25113"
recorded_measurement = 0.0419

[[record]]
molecule = "C[C@H]1CN([C@@H](C)CO)C(=O)Cc2cc(NC(=O)CCN3CCOCC3)ccc2O[C@@H]1CN(C)Cc1ccccc1"
assayed_system = "Escherichia coli K-12 BW25113"
recorded_measurement = 1.01


*Q* State the recorded relative growth for this entry: CNC1CCC(c2ccc(Cl)c(Cl)c2)c2ccccc21.Cl (centres undefined)
*A* 0.261

*Q* Which relative growth value belongs to C[C@H]1CN([C@@H](C)CO)C(=O)c2cc(NS(=O)(=O)c3cn(C)cn3)ccc2O[C@H]1CN(C)Cc1ccc(C(=O)Nc2ccccc2N)cc1 ?
*A* 1.04

*Q* Field request: relative growth | item: Cc1noc(C)c1NC(=O)N(C)C[C@@H]1Oc2ncc(C#CCN(C)C)cc2C(=O)N([C@H](C)CO)C[C@@H]1C
*A* 0.979

*Q* I have this molecule here, COc1ccc(Cc2nn[nH]n2)cc1 , and I need its recorded relative growth.
*A* 1

*Q* Given the entry O=c1nc[nH]c2n[nH]cc12 , report its measured relative growth.
*A* 1.03

* * *

Tested on: Escherichia coli K-12 BW25113
Assay: relative growth (OD600 normalised to plate interquartile mean) (fraction); higher = less growth inhibition, active = 0.2 or less
Details: 50 µM; LB; incubation time: overnight (16-24 h)
Screen size: about 39,000 compounds; about 220 (0.56%) showed activity. The list comes from a sample in which actives are over-represented; it also holds close analogues and randomly drawn compounds.
Please note: Yes applies when relative growth is 1 or greater, and No applies otherwise.

Example cases with answers are listed next.
[[record]]
compound = "O=c1[nH]c(=O)n([C@H]2C[C@H](O)[C@@H](CO)O2)cc1F"
qualitative_label = "No"

[[record]]
compound = "O=c1[nH]c(=O)n([C@H]2C[C@H](O)[C@@H](CO)O2)cc1CO"
qualitative_label = "Yes"


*Q* # check: relative growth of CC(C)NC(=O)Nc1ccc2c(c1)C(=O)N([C@H](C)CO)C[C@H](C)[C@H](CN(C)CC1CCCCC1)OCCCC[C@@H](C)O2 is greater than or equal to 1
*A* No

*Q* hey, is relative growth for this one >= 1? CON=C(C(=O)NC1C(=O)N2C(C(=O)OCOC(=O)C(C)(C)C)=C(C=Cc3scnc3C)CSC12)c1csc(N)n1 (stereo unspecified)
*A* No

*Q* Has O=c1[nH]c(=O)n(C2CC(O)C(CO)O2)cc1I (stereo unspecified) a recorded relative growth greater than or equal to 1?
*A* Yes

*Q* Kindly determine if relative growth recorded for Cc1cn([C@H]2C[C@H](O)[C@@H](CO)O2)c(=O)[nH]c1=O is above or exactly 1.
*A* Yes

*Q* Identify whether the reported relative growth of the following compound is 1 or greater: O=c1[nH]c(=O)n([C@@H]2C[C@@H](O)[C@@H](CO)O2)cc1F
*A* No

*Q* Form field: relative growth at least 1? Entry: CON=C(C(=O)N[C@@H]1C(=O)N2C(C(=O)OCOC(=O)C(C)(C)C)=C(C=Cc3scnc3C)CS[C@H]12)c1csc(N)n1
*A* No

* * *

Test system: Escherichia coli K-12 BW25113
Test: relative growth (OD600 normalised to plate interquartile mean) (fraction); higher = less growth inhibition, active = 0.2 or less
Conditions: 50 µM; LB; incubation time: overnight (16-24 h)
In all, about 39,000 compounds went through this assay and about 220 (0.56%) showed activity. The list comes from a sample in which actives are over-represented; it also holds close analogues and randomly drawn compounds.
Documented relative growth across a set of molecules
Just the number.

// solved cases for relative growth follow
[[record]]
molecule = "C[C@@H]1CN([C@H](C)CO)C(=O)Cc2cc(NC(=O)CCCCCC(=O)Nc3ccccc3N)ccc2O[C@H]1CN(C)C(=O)Nc1cccc2ccccc12"
recorded_measurement = 0.963

[[record]]
molecule = "Cc1ccc(C(=O)O)c(=O)n1C"
recorded_measurement = 1.02


*Q* For the molecule C[C@@H]1CCCCO[C@@H](CN(C)C(=O)Nc2ccc3c(c2)OCO3)[C@@H](C)CN([C@H](C)CO)C(=O)c2cc(NC(=O)c3ccccc3)ccc2O1 , what relative growth is on record?
*A* 1.01

*Q* I would be grateful if you could share the reported relative growth for Cc1cc(=S)oc2ccccc12 .
*A* 0.943

*Q* Any idea what relative growth was measured for C[C@@H]1CN([C@H](C)CO)C(=O)Cc2cc(NC(=O)CCCN(C)C)ccc2O[C@@H]1CN(C)S(=O)(=O)c1ccc(Cl)cc1 ?
*A* 0.973

* * *

Tested on: Escherichia coli K-12 BW25113
Experiment: relative growth (OD600 normalised to plate interquartile mean) (fraction); higher = less growth inhibition, active = 0.2 or less
Conditions: 50 µM; LB; incubation time: overnight (16-24 h)
The campaign covered roughly 39,000 compounds. About 220 (0.56%) showed activity. This excerpt belongs to a sample that is enriched for actives.
quantity kind: relative growth
Keep the answer to the number alone.

[[record]]
compound = "O=C(O)c1cccc(-c2ccco2)c1"
quantity_kind = "relative growth"
recorded_measurement = 1.01


*Q* # returns recorded relative growth (system: Escherichia coli K-12 BW25113) for Cc1ccc(S(=O)(=O)N(C)C[C@H]2OCCCC[C@H](C)Oc3ccc(NC(=O)Nc4ccccc4)cc3C(=O)N([C@H](C)CO)C[C@@H]2C)cc1
*A* 1.07

* * *

Test system: Escherichia coli K-12 BW25113
Assay: relative growth (OD600 normalised to plate interquartile mean) (fraction); higher = less growth inhibition, active = 0.2 or less
Conditions: 50 µM; LB; incubation time: overnight (16-24 h)
The campaign covered roughly 39,000 compounds. About 220 (0.56%) showed activity. This excerpt belongs to a sample that is enriched for actives.
quantity kind: relative growth
Give the figure by itself; no unit, no explanation.

Worked examples, 3 compounds total:
[[record]]
smiles = "C[C@H]1CCCCO[C@@H](CN(C)S(=O)(=O)c2ccc(Cl)cc2)[C@@H](C)CN([C@@H](C)CO)C(=O)c2cc(NC(=O)NC3CCCCC3)ccc2O1"
recorded_measurement = 1

[[record]]
smiles = "C[C@@H]1CN([C@@H](C)CO)C(=O)c2cc(NC(=O)C3CCCCC3)ccc2O[C@@H]1CN(C)C(=O)Nc1cccc2ccccc12"
recorded_measurement = 1.01

[[record]]
smiles = "CC(=O)O"
recorded_measurement = 1.01


*Q* Tell me reported relative growth for C[C@@H]1CN([C@@H](C)CO)C(=O)Cc2cc(NC(=O)Cc3cn(C)c4ccccc34)ccc2O[C@H]1CN(C)Cc1ccc(C(F)(F)F)cc1 , tested with Escherichia coli K-12 BW25113.
*A* 1.02

* * *

Tested on: Escherichia coli K-12 BW25113;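 also: Wild-type cells incubated without shaking, value is the mean of two biological replicates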
Assay: relative growth (OD600 normalised to plate interquartile mean) (fraction); higher = less growth inhibition, active = 0.2 or less
Conditions: 50 µM; LB; incubation time: overnight (16-24 h)
The campaign covered roughly 39,000 compounds. About 220 (0.56%) showed activity. The list comes from a sample in which actives are over-represented; it also holds close analogues and randomly drawn compounds.
Label rule, in plain words: relative growth of 1 and up is t, under 1 is f.

Here's what some known entries look like.
[[record]]
compound = "C[C@@H]1CN([C@@H](C)CO)C(=O)c2cc(NC(=O)Nc3ccc4c(c3)OCO4)ccc2O[C@@H](C)CCCCO[C@@H]1CN(C)C(=O)NC1CCCCC1"
qualitative_label = "t"

[[record]]
compound = "Nc1nc(=O)c2nc(Br)n([C@@H]3O[C@@H]4COP(=O)(O)O[C@H]4[C@H]3O)c2[nH]1"
qualitative_label = "t"

[[record]]
compound = "CC1C(NC(=O)C(=NOC(C)(C)C(=O)O)c2csc(N)n2)C(=O)N1S(=O)(=O)O (stereo not drawn)"
qualitative_label = "f"


*Q* hey, is relative growth for this one >= 1? CN(C)[C@@H]1C(=O)[C@@H](C(N)=O)C(=O)[C@@]2(O)C(=O)[C@H]3C(=O)c4c(O)ccc(Cl)c4[C@@H](O)[C@H]3C[C@@H]12
*A* f
